- System: SK-MEL-2 melanoma
- Assay Explanation: NCI-60 one-dose screen, 48 h (100 = growth as untreated, 0 = no growth, -100 = all killed)
- Applied Conditions: 10 µM unless noted
Compounds without any hit were thinned out: in the full panel of roughly 83,000, 20% have a hit.
Parameter growth: see the listing below.
Field: numeric (%). Do not append units.

- Compound: "Oc1ccc(CCC2CCNc3ccccc32)cc1 (stereo not drawn)"
  Unit Info: "%"
  growth: 86.7
- Compound: "Cc1ccnc(Nc2nc3ccccc3[nH]2)n1"
  Unit Info: "%"
  growth: 105
- Compound: "O=C(OCC1CCCO1)c1ccc([N+](=O)[O-])cc1 (stereo not drawn)"
  Unit Info: "%"
  growth: 103
- Compound: "CC(=O)C1C(=O)C(=O)N(c2ccc(Cl)c(Cl)c2)C1=O (stereo not drawn)"
  Unit Info: "%"
  growth: 111
- Compound: "O=C(Nc1ccccc1)c1ccco1"
  Unit Info: "%"
  growth: 99.1

Q) Requested read-out: growth. Entry: `CCOC(=N)CC(=O)Nc1cccc(C)c1Cl`
A) 118

Q) What about this compound? `COc1ccc(C(=O)/C(=N/Nc2ccccc2)c2ccc(OC)cc2)cc1`
A) 96.2

Q) What about this compound? `CCCCOC(=O)c1ccc(NC(=O)CCl)cc1`
A) 62.3

Q) Another compound: CC1CC2C3CCC4=CC(=O)CCC4(C)C3CCC2(C)C1(O)C(=O)CO (stereo not drawn)
A) 99.2

Q) Also need C=CC(=O)OC1CCC(C(C)(C)CC)CC1 (stereo not drawn) , thanks.
A) 108

Q) Field entry: `Cc1cccc2ccccc12`
A) 106

Q) Try this compound next: `Cc1ccc(N)c(S(=O)(=O)O)c1`
A) 84.3

Q) Would you kindly repeat that for COc1ccc(C2CCCCC2=O)cc1 (stereo not drawn) ?
A) 119

====

- Test system: SK-MEL-2 melanoma
- Assay Explanation: NCI-60 one-dose screen, 48 h
- Applied Conditions: 10 µM unless noted
This is part of a sample that, as a whole, favours compounds with a hit. Of some 83,000 tested, about 20% had one in any assay. The source made the active and inactive calls. Rule for the calls: active = growth percent below 10; inactive = the rest.
Pick one and only one: YES = active, NO = inactive

Reference set, count: 3
- Molecule: "NC(=O)OCCO"
  Assigned Category: "NO"
- Molecule: "Nc1ccc(F)cc1F"
  Assigned Category: "NO"
- Molecule: "NCCCN1CCCC1=O"
  Assigned Category: "NO"

Q) What outcome does the record of this test show for C=C1C(=O)C2CCC1C2 (configuration not stated) ?
A) NO

Q) // same read-out, input: `CN1CCN(C(=S)S)CC1`
A) NO

Q) Please do the same for `CCOC(=O)C1(N)CCCCC1` as well.
A) NO

====

- Tested on: KM12 colon
- Assay Explanation: NCI-60 one-dose screen, 48 h (100 = growth as untreated, 0 = no growth, -100 = all killed)
- Applied Conditions: 10 µM unless noted
This is part of a sample that, as a whole, favours compounds with a hit. Of some 83,000 tested, about 20% had one in any assay.
Assay Metric: growth (%)
Only the number, expressed in %, is required.

Check out these entries, answers already filled in.
- Compound: "CCc1ccccc1C(=O)N(CC)CC"
  Readout Value: 103
- Compound: "Oc1ccc(CCC2CCNc3ccccc32)cc1 (stereo not drawn)"
  Readout Value: 88.4
- Compound: "S=c1nc(-c2ccccn2)c(-c2ccccn2)n[nH]1"
  Readout Value: 97.4
- Compound: "C=COC(=O)C(C)(C)C"
  Readout Value: 107
- Compound: "Cc1ccnc(Nc2nc3ccccc3[nH]2)n1"
  Readout Value: 118
- Compound: "Nc1cccc2cccc(O)c12"
  Readout Value: 128

Q) // lookup growth for C=COC(=O)CCOCC(CC)CCCC (stereo not drawn)
A) 99.9

Q) Repeat for the following compound: CC(C)(C)CC1(C)NC(=O)NC1=O (stereo not drawn)
A) 106
